- EXPERIMENTAL_DETAILS: Aqueous solubility at pH 3
- Format: physicochemical
- CONDITION_SUMMARY: buffer
MEASUREMENT_TYPE: solubility

COC(=O)N1CCC(n2ncc3c(N4CCOCC4)nc(-c4ccc(NC(=O)Nc5ccc(N6CCN(C)CC6)cc5)cc4)nc32)CC1 | > 100 µg/mL

###

- EXPERIMENTAL_DETAILS: Metabolic stability in nude mouse microsomes assessed as half life at 1 uM by HPLC-MS/MS analysis
- Format: ADME, Microsome
MEASUREMENT_TYPE: half-life at 1 µM (min)

Oc1cccc(-c2nc(N3CCOCC3)c3cnn(C4CCN(Cc5cccnc5)CC4)c3n2)c1 | 5
CNC(=O)Nc1ccc(-c2nc(N3CCOCC3)c3cnn(C4CCN(C)CC4)c3n2)cc1 | 2
COC(=O)Nc1ccc(-c2nc(N3CCOCC3)c3cnn(C4CCN(Cc5cccnc5)CC4)c3n2)cc1 | 14
CC(=O)Nc1ccc(-c2nc(N3CCOCC3)c3cnn(C4CCN(Cc5cccnc5)CC4)c3n2)cc1 | 12
CNC(=O)Nc1ccc(-c2nc(N3CCOCC3)c3cnn(C4CCN(Cc5cccnc5)CC4)c3n2)cc1 | 12
COC(=O)N1CCC(n2ncc3c(N4CCOCC4)nc(-c4ccc(NC(=O)Nc5ccncc5)cc4)nc32)CC1 | 9
